# Test system: CXCR7 (Homo sapiens)
# Sequence (P25106 whole entry): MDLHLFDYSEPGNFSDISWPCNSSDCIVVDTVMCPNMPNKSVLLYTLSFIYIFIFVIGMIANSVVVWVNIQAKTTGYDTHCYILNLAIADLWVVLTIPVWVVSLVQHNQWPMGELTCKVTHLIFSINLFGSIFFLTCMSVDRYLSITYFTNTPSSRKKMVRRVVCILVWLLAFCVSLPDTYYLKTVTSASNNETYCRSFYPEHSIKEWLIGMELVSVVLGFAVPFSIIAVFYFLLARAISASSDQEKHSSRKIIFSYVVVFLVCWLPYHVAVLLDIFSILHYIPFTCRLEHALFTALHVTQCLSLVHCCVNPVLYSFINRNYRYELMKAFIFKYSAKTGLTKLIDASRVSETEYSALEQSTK
# Assay procedure: CXCR7 β-arrestin recruitment assay in CHO-CXCR7 cells (ProLink/EA β-galactosidase complementation), induced by human SDF-1a
# Test parameters: assay buffer, SDF-1a at EC50 concentration
pIC50: −log10 of the molar value.
Overview of recorded pIC50 for various compounds

The following compounds have reported results that may help.
Noted for C[C@]1(O)CC[C@H](N2CC(CC(=O)NCc3cccc(Cl)c3)(NC(=O)c3cc(-c4ccc(F)cc4F)on3)C2)CC1 : its pIC50 reads 4.70 to 6.00

Noted for CC(C)(NC(=O)CC1(NC(=O)c2cc(-c3ccc(F)cc3F)on2)CN([C@H]2CC[C@@](C)(O)CC2)C1)c1ccc(F)c(F)c1 : its pIC50 reads 7.00 to 8.30

Now let's try a different one.
Noted for O=C(CC1(NC(=O)c2cc(-c3ccc(F)cc3F)on2)CN(C2CCOCC2)C1)NC1(c2ncccn2)CC1 : its pIC50 reads 6.00 to 7.00
